Reference source for all entries: patent US11795460B2

# System: TTR
# Method description: TTR editing in primary human hepatocytes transfected with Spy Cas9 protein and sgRNAs (Table 12)
# Format: cell-based
# Experimental parameters: primary human hepatocytes transfected with Spy Cas9 protein (RNP) and sgRNAs
Strand notation (5' to 3'): a small letter for the sugar, then the base; units joined by * are phosphorothioate-linked, units joined directly phosphodiester-linked; [ ] holds rarer units or linkages, { } end groups; capitals alone tell only the bases. m = 2'-O-methyl; r = 2'-OH (RNA)
Reported property: Avg % Deletion (%)
Form entry: value (%) — number only.

Below, each entry is followed by its recorded Avg % Deletion result.
{"Molecule": "G000496: TTR sgRNA modified sequence, Human, SEQ ID No. 103; guide sequence of CR005304 (nucleic acid) guide: mG*mG*mC*rCrGrUrGrCrArUrGrUrGrUrUrCrArGrArArGrUrUrUrUrArGrAmGmCmUmAmGmAmAmAmUmAmGmCrArArGrUrUrArArArArUrArArGrGrCrUrArGrUrCrCrGrUrUrArUrCrAmAmCmUmUmGmAmAmAmAmAmGmUmGmGmCmAmCmCmGmAmGmUmCmGmGmUmGmCmU*mU*mU*mU", "Units": "%", "Avg % Deletion": 27.67}
{"Molecule": "G000495: TTR sgRNA modified sequence, Human, SEQ ID No. 102; guide sequence of CR003343 (nucleic acid) guide: mC*mA*mG*rArGrGrArCrArCrUrUrGrGrArUrUrCrArCrGrUrUrUrUrArGrAmGmCmUmAmGmAmAmAmUmAmGmCrArArGrUrUrArArArArUrArArGrGrCrUrArGrUrCrCrGrUrUrArUrCrAmAmCmUmUmGmAmAmAmAmAmGmUmGmGmCmAmCmCmGmAmGmUmCmGmGmUmGmCmU*mU*mU*mU", "Units": "%", "Avg % Deletion": 5.37}

// below: Avg % Deletion requested for another molecule
Read off the recorded Avg % Deletion for G000480: TTR sgRNA modified sequence, Human, SEQ ID No. 87; guide sequence of CR003353 (nucleic acid) guide: mA*mA*mA*rGrGrCrUrGrCrUrGrArUrGrArCrArCrCrUrGrUrUrUrUrArGrAmGmCmUmAmGmAmAmAmUmAmGmCrArArGrUrUrArArArArUrArArGrGrCrUrArGrUrCrCrGrUrUrArUrCrAmAmCmUmUmGmAmAmAmAmAmGmUmGmGmCmAmCmCmGmAmGmUmCmGmGmUmGmCmU*mU*mU*mU
4.70
